test system: HSSY-II tumor spheroid viability; assay: Anticancer human tumor HSSY-II cell line growth inhibition; conditions: second compound 94.9 pM; first compound 0.0949 µM; spheroids with HUVEC and MSC; active means viability on the fitted dose curve at most 10% of control; inactive means the rest;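 further: spheroids exposed to compounds for seven days before reading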
Labels: T for active, F for inactive

Compound	Answer Label
CNCc1ccc(-c2cc(-c3nc(-c4ccc(S(=O)(=O)C(C)C)cc4)cnc3N)on2)cc1 + COc1cc2c(cc1O)CCNC21CSC2c3c(OC(C)=O)c(C)c4c(c3C(COC1=O)N1C(O)C3Cc5cc(C)c(OC)c(O)c5C(C21)N3C)OCO4	T
Cn1ncnc1[C@H]1c2n[nH]c(=O)c3cc(F)cc(c23)N[C@@H]1c1ccc(F)cc1 + COc1cc2c(cc1O)CCNC21CSC2c3c(OC(C)=O)c(C)c4c(c3C(COC1=O)N1C(O)C3Cc5cc(C)c(OC)c(O)c5C(C21)N3C)OCO4	F
Cc1sc2c(c1C)C(c1ccc(Cl)cc1)=NC(CC(=O)Nc1ccc(O)cc1)c1nnc(C)n1-2 (centres undefined) + COc1cc2c(cc1O)CCNC21CSC2c3c(OC(C)=O)c(C)c4c(c3C(COC1=O)N1C(O)C3Cc5cc(C)c(OC)c(O)c5C(C21)N3C)OCO4	F
O=C(c1cc(Cc2n[nH]c(=O)c3ccccc23)ccc1F)N1CCN(C(=O)C2CC2)CC1 + COc1cc2c(cc1O)CCNC21CSC2c3c(OC(C)=O)c(C)c4c(c3C(COC1=O)N1C(O)C3Cc5cc(C)c(OC)c(O)c5C(C21)N3C)OCO4	F
